# system.tested: T1, human GIP receptor (human, UniProt P48546 22-466)
# T1 sequence (looked up): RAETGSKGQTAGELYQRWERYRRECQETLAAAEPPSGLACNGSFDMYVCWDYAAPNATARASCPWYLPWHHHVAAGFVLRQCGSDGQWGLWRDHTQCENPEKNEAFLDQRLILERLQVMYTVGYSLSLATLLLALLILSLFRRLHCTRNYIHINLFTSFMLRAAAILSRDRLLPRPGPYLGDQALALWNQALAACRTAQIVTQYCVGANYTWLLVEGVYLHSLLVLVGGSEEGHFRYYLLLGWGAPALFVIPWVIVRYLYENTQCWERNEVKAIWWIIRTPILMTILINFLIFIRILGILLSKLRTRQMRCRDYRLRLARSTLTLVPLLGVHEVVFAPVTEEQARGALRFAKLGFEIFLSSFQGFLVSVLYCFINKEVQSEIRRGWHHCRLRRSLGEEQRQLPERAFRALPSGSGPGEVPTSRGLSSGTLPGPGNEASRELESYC
# test.summary: cell-based or functional assay
Bridge positions count the residues as written; N and C are the ends. Square brackets hold non-standard residues; d marks the D form. Ends that are not written are not given here. Aib = CC(C)(N)C(=O)O
measurement.label: In vitro activity compared with native peptide (%) vs GIP (cAMP EC50)
Give a bare numeral; the unit % is implied.

Q: Please look up its In vitro activity compared with native peptide (%) vs GIP (cAMP EC50): H[Aib]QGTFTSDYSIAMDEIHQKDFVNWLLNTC (bridge 16-20) [triple agonist of SEQ ID NO: 57]
Result: 0.3

Q: Please look up its In vitro activity compared with native peptide (%) vs GIP (cAMP EC50): H[Aib]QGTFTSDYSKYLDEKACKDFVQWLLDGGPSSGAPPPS (bridge 16-20) [triple agonist of SEQ ID NO: 32]
Result: 8.8

Origin of values: patent US20240293512A1
